Source listed as patent US10568876B2.

IC50 tested on hDGAT2 (Homo sapiens (Human), UniProt Q96PD7): recorded values
Sequence (Q96PD7 whole entry): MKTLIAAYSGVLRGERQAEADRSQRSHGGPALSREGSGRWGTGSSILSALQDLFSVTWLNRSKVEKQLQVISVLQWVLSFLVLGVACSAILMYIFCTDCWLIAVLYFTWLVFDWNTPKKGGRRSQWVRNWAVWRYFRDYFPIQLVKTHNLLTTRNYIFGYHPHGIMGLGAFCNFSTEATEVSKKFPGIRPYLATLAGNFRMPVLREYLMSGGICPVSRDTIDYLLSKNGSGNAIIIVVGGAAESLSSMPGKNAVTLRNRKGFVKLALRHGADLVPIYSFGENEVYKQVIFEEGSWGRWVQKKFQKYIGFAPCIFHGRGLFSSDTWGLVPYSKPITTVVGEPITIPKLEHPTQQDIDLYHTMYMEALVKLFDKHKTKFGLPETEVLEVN
One number for each entry, in nM.

Some solved entries appear below for comparison.
- compound: "COC(=O)c1cccc(-c2ccc(CNC(=O)C3CC3c3ccccc3)c3c2CCN(C(=O)C(C)C)C3)c1 (stereo not shown)"
  IC50, nM: 281
- compound: "CC(C)(C)NC(=O)N1CCc2c(-c3cccc(-n4cccn4)c3)ccc(CNC(=O)[C@@H]3C[C@H]3c3ccccc3)c2C1 (relative stereo)"
  IC50, nM: 11.6
- compound: "CCOC(=O)CCCNC(=O)N1CCc2c(-c3cccc(OC)c3)ccc(CNC(=O)[C@@H]3C[C@H]3c3ccccc3)c2C1 (relative stereo)"
  IC50, nM: 227

// recorded IC50 for COc1cccc(-c2ccc(CNC(=O)[C@@H]3C[C@H]3c3nc(C)no3)c3c2CCN(C(=O)Nc2ccon2)C3)c1 (relative stereo) : 144

====

Field: log10 of IC50. Provide a value for each of the compounds that follow.
measured on: hDGAT2 (Homo sapiens (Human), UniProt Q96PD7)
Remember, log10 of IC50, in nM.

- compound: "COC(=O)c1cccc(-c2ccc(CNC(=O)C3CC3c3ccccc3)c3c2CCN(C(=O)C2(C(F)(F)F)CC2)C3)c1 (stereo not drawn)"
  log10 of IC50: 3.12
- compound: "CC(C)(C)NC(=O)N1CCc2c(-c3cncc(CO)c3)ccc(CNC(=O)C3C[C@H]3c3ccccc3)c2C1 (stereo partly drawn)"
  log10 of IC50: 3.00
- compound: "Cc1noc2ccc(-c3ccc(CNC(=O)[C@@H]4C[C@H]4c4ccccc4)c4c3CCN(C(=O)NC(C)(C)C)C4)cc12 (relative stereo)"
  log10 of IC50: 1.78
- compound: "Cc1noc([C@@H]2C[C@H]2C(=O)NCc2ccc(-c3cccc(C(F)(F)F)c3)c3c2CN(C(=O)C(C)(C)O)CC3)n1 (stereo in doubt)"
  log10 of IC50: 3.20

Below are 2 compounds. Give each one its log10 of IC50.
1. COc1cccc(-c2ccc(CNC(=O)C3CC3c3ccccc3)c3c2CCN(CC(F)(F)F)C3)c1 (stereo not drawn)
2. CC(C)(C)NC(=O)N1CCc2c(-c3cccc(OC(F)(F)F)c3)ccc(CNC(=O)C3CC3c3cccnc3)c2C1 (stereo not drawn)

Reply:
1. 3.09
2. 1.07

====

Reported values: pIC50 for hDGAT2 (Homo sapiens (Human)), one per item.
One number for each entry, as −log10 of the molar value.

Dear reader, for each entry below, please note its pIC50.
1. CC(C)(C)NC(=O)N1CCc2c(-c3cccc(-n4cncn4)c3)ccc(CNC(=O)[C@@H]3C[C@H]3c3ccccc3)c2C1 (relative stereo) [Example 50]
2. COC(=O)c1cccc(-c2ccc(CNC(=O)C3CC3c3ccccc3)c3c2CCN(C(=O)NC2CC(F)(F)C2)C3)c1 (stereo not shown) [Example 56]
3. Cc1noc([C@@H]2C[C@H]2C(=O)NCc2ccc(-c3cccc(C(F)(F)F)c3)c3c2CN(C(=O)Nc2ccon2)CC3)n1 (relative stereo) [Example 26]
4. COC(=O)c1cccc(-c2ccc(CNC(=O)C3CC3c3nc(C)no3)c3c2CCN(C(=O)NC(C)(C)C)C3)c1 (stereo not shown) [Example 21]
5. COc1cccc(-c2ccc(CNC(=O)[C@H]3C[C@@H]3c3cccnc3)c3c2CCN(C(=O)NC(C)(C)C)C3)c1 (relative stereo) [Example 19]
6. COC(=O)c1cccc(-c2ccc(CNC(=O)C3CC3c3ccccc3)c3c2CCN(C(=O)c2ccccc2)C3)c1 (stereo not shown) [Example 138]

Reply:
1. 8.03
2. 8.01
3. 6.90
4. 7.81
5. 8.07
6. 6.75

====

measured on: UniProtKB Q96PD7
test description: DGAT2 Enzymatic Activity Assay
Format: biochemical
experimental parameters: hDGAT2 Sf-9 membrane prep; 25 μM diolein, 10 μM oleoyl-CoA; triolein product by LC/MS/MS; read-out: IC50 values for inhibition of DGAT2
Definition: the class of an entry is the range in b0: < 0.2 µM; b1: ≥ 0.2 µM and < 2 µM; b2: ≥ 2 µM that contains its IC50.

- compound: "Cc1noc([C@@H]2C[C@H]2C(=O)NCc2ccc(-c3cccc(OC(F)(F)F)c3)c3c2CN(Cc2cnccn2)CC3)n1 (relative stereo) [Example 107]"
  classification: "b2"
- compound: "Cc1noc([C@@H]2CC2C(=O)NCc2ccc(-c3cccc(OC(F)(F)F)c3)c3c2CN(CC(=O)N2[C@H](C)COC[C@H]2C)CC3)n1 (stereo partly drawn) [Example 108]"
  classification: "b2"
- compound: "COC[C@H]1CCC[C@H]1NC(=O)CN1CCc2c(-c3cccc(OC(F)(F)F)c3)ccc(CNC(=O)C3CC3c3nc(C)no3)c2C1 (stereo in doubt) [Example 86]"
  classification: "b2"
- compound: "CCCNC(=O)N1CCc2c(-c3cccc(OC)c3)ccc(CNC(=O)[C@@H]3C[C@H]3c3ccccc3)c2C1 (relative stereo) [Example 70]"
  classification: "b0"
- compound: "CC(C)(C)NC(=O)N1CCc2c(-c3cccc(C(N)=O)c3)ccc(CNC(=O)[C@@H]3C[C@H]3c3ccccc3)c2C1 (relative stereo) [Example 42]"
  classification: "b0"
- compound: "COc1cccc(-c2ccc(CNC(=O)[C@@H]3C[C@H]3c3ccccc3)c3c2CCN(C(=O)N2CCOCC2)C3)c1 (relative stereo) [Example 62]"
  classification: "b1"

Query: Which bin, given its IC50, does COc1ccc(CNC(=O)CN2CCc3c(-c4cccc(OC(F)(F)F)c4)ccc(CNC(=O)C4CC4c4nc(C)no4)c3C2)c(OC)c1 (stereo not drawn) [Example 85] occupy?
Reply: b1

Query: Which band does Cn1nccc1-c1ccc(CNC(=O)[C@@H]2C[C@H]2c2ccccc2)c2c1CCN(C(=O)NC(C)(C)C)C2 (relative stereo) [Example 30] fall in?
Reply: b1

Query: Which band does COCCC(=O)N1CCc2c(-c3cccc(C(=O)OC)c3)ccc(CNC(=O)C3CC3c3ccccc3)c2C1 (stereo not drawn) [Example 126] fall in?
Reply: b1

Query: Each compound maps to one class by IC50. Which class for CC(C)(C)NC(=O)N1CCc2c(-c3cccc(NS(C)(=O)=O)c3)ccc(CNC(=O)[C@@H]3C[C@H]3c3ccccc3)c2C1 (relative stereo) [Example 39] ?
Reply: b1

Query: Bin? COc1cccc(-c2ccc(CNC(=O)[C@@H]3C[C@H]3c3ccccc3)c3c2CCN(C(=O)Nc2ccon2)C3)c1 (relative stereo) [Example 23]
Reply: b1

====

measured on: hDGAT2 (Homo sapiens (Human), UniProt Q96PD7)
test description: DGAT2 Enzymatic Activity Assay
Format: biochemical
experimental parameters: hDGAT2 Sf-9 membrane prep; 25 μM diolein, 10 μM oleoyl-CoA; triolein product by LC/MS/MS; read-out: IC50 values for inhibition of DGAT2
measurement name: IC50 (µM)
Answers are plain numbers, in µM.

Recorded IC50, per entry:
- compound: "COC(=O)c1cccc(-c2ccc(CNC(=O)C3CC3c3ccccc3)c3c2CCN(C(=O)c2cccc(-n4cccc4)c2)C3)c1 (stereo not drawn)"
  measured on: "hDGAT2 (Homo sapiens (Human), UniProt Q96PD7)"
  IC50, µM: 5.49
- compound: "Cc1noc([C@@H]2C[C@H]2C(=O)NCc2ccc(-c3cccc(OC(F)(F)F)c3)c3c2CN(Cc2noc(C(C)C)n2)CC3)n1 (relative stereo)"
  measured on: "hDGAT2 (Homo sapiens (Human), UniProt Q96PD7)"
  IC50, µM: 5.09
- compound: "CC(C)(C)NC(=O)N1CCc2c(-c3cccc(-n4nccn4)c3)ccc(CNC(=O)[C@@H]3C[C@H]3c3ccccc3)c2C1 (relative stereo)"
  measured on: "hDGAT2 (Homo sapiens (Human), UniProt Q96PD7)"
  IC50, µM: 0.0976
- compound: "COC(=O)c1cccc(-c2ccc(CNC(=O)C3CC3c3ccccc3)c3c2CCN(C(=O)c2ccccc2F)C3)c1 (stereo not drawn)"
  measured on: "hDGAT2 (Homo sapiens (Human), UniProt Q96PD7)"
  IC50, µM: 0.219
- compound: "COc1cccc(-c2ccc(CNC(=O)C3CC3c3ccccc3)c3c2CCN(S(C)(=O)=O)C3)c1 (stereo not drawn)"
  measured on: "hDGAT2 (Homo sapiens (Human), UniProt Q96PD7)"
  IC50, µM: 2.78

Entry COc1cccc(-c2ccc(CNC(=O)C3CC3c3ccccc3)c3c2CCN(c2ncccn2)C3)c1 (stereo not drawn) — recorded IC50 = 3.2

====

measured on: hDGAT2 (Homo sapiens (Human), UniProt Q96PD7)
pIC50: −log10 of the molar value.
Rule: pIC50 of 6 or more gives TRUE; anything lower gives FALSE.

- compound: "COC(=O)c1cccc(-c2ccc(CNC(=O)C3CC3c3ccccc3)c3c2CCN(Cc2ccc(F)cc2)C3)c1 (stereo not shown)"
  measured on: "hDGAT2 (Homo sapiens (Human), UniProt Q96PD7)"
  classification: "FALSE"
- compound: "COC(=O)c1cccc(-c2ccc(CNC(=O)C3CC3c3ccccc3)c3c2CCN(C(=O)C2(C#N)CC2)C3)c1 (stereo not shown)"
  measured on: "hDGAT2 (Homo sapiens (Human), UniProt Q96PD7)"
  classification: "FALSE"
- compound: "Cc1noc(C2CC2C(=O)NCc2ccc(-c3cccc(OC(F)(F)F)c3)c3c2CN(C(=O)NC2CCS(=O)(=O)C2)CC3)n1 (stereo not shown) [Example 76]"
  measured on: "hDGAT2 (Homo sapiens (Human), UniProt Q96PD7)"
  classification: "TRUE"
- compound: "COC(=O)c1cccc(-c2ccc(CNC(=O)C3CC3c3ccccc3)c3c2CCN(Cc2ncn(C)c2C)C3)c1 (stereo not shown)"
  measured on: "hDGAT2 (Homo sapiens (Human), UniProt Q96PD7)"
  classification: "FALSE"

Here is another compound to look at.
Query: Quick check: does Cn1nnc2ccc(-c3ccc(CNC(=O)[C@@H]4C[C@H]4c4ccccc4)c4c3CCN(C(=O)NC(C)(C)C)C4)cc21 (relative stereo) have pIC50 greater than or equal to 6?
Reply: FALSE
